Target: Aurora kinase A (Homo sapiens, UniProt O14965)
Sequence (O14965 whole entry): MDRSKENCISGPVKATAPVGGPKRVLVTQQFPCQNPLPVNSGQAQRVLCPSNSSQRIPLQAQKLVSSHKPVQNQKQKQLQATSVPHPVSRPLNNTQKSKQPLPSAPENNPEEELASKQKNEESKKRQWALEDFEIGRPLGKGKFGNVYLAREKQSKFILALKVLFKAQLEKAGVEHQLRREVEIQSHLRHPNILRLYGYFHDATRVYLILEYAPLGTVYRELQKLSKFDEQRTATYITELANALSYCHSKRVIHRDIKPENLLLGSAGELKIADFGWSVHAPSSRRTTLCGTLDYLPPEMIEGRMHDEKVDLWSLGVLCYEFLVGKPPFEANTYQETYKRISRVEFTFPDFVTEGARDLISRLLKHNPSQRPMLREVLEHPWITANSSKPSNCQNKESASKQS
Assay: Inhibition of Aurora A ATP-binding site
Parameter Measured: pKi
A value of pKi is the negative decimal logarithm of a concentration given in moles per litre.

Qu. Suppose we examine the molecule Cc1cc(Nc2cc(N3CCN(CC(=O)O)CC3)nc(Sc3ccc(NC(=O)C4CC4)cc3)n2)n[nH]1 ; what pKi value has been reported?
Ans. 7.70

* * *

Biological target: Mitogen-activated protein kinase 14 (Homo sapiens, UniProt Q16539)
Sequence (Q16539 whole entry): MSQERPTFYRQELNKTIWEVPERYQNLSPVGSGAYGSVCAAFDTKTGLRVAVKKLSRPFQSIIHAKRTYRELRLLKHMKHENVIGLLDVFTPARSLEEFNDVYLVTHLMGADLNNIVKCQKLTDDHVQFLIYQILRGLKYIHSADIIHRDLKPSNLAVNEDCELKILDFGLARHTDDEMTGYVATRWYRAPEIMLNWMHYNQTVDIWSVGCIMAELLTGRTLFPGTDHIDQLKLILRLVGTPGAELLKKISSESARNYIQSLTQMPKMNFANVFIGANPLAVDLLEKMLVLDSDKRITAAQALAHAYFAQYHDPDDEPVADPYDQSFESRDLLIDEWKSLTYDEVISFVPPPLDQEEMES
Experiment: Displacement of […] form p38alpha after 30 mins by luminescence assay
What EC50 was measured for each of the following?
Please reply with the bare figure in µM and do not write the unit itself.

Qu. Name the reported EC50 value associated with the compound CCOc1nc(N[C@@H](Cc2ccc3c(c2)COC(C)(C)O3)C(=O)NC)nc(-n2cnc3cc(C(=O)N4CCCc5ccccc54)ccc32)n1
Ans. 2.7

Qu. Suppose we examine the compound CNC(=O)[C@H](Cc1ccc2c(c1)COC(C)(C)O2)Nc1nc(O)nc(-n2cnc3cc(C(=O)N4CCCc5ccccc54)ccc32)n1 ; what EC50 value has been reported?
Ans. 5.2
